Recorded values, source paper PMC12530843.

- Measured Target: BAG3-BD (Homo sapiens, UniProt O95817)
- Construct: the BAG3 domain (BAG3‐BD) was sourced from ARETA International S.r.l; (Gerenzano, Italy); purchased ARETA International S.r.l
- Assay Text: SPR binding on BAG3 BAG domain
- Conditions: Biacore T200, 25 °C, 1:1 model, read-out: BAG3–BD KD ± SD
Recorded Endpoint: Kd (µM)

>  <Input Smiles>
O=C(OCc1cn(COCc2ccccc2)nn1)c1cccc([N+](=O)[O-])c1

>  <Measured Target>
BAG3-BD (Homo sapiens, UniProt O95817)

>  <Reported Value>
1.87

$$$$
>  <Input Smiles>
O=C(OCc1cn(Cc2ccc3c(c2)C(=O)c2ccccc2C3=O)nn1)c1cccc([N+](=O)[O-])c1

>  <Measured Target>
BAG3-BD (Homo sapiens, UniProt O95817)

>  <Reported Value>
0.38

$$$$
>  <Input Smiles>
O=C(OCc1cn(Cc2ccc(C(=O)c3ccccc3)cc2)nn1)c1cccc([N+](=O)[O-])c1

>  <Measured Target>
BAG3-BD (Homo sapiens, UniProt O95817)

>  <Reported Value>
43.5

$$$$
>  <Input Smiles>
O=C(OCc1cn(Cc2ccc3ccccc3n2)nn1)c1cccc([N+](=O)[O-])c1

>  <Measured Target>
BAG3-BD (Homo sapiens, UniProt O95817)

>  <Reported Value>
8.27

$$$$

====

- Tested on: HaCaT cells
- Assay Text: MTT cell viability, HaCaT healthy keratinocytes
- Type: cell-based, human
- Conditions: Homo sapiens, HaCaT; 48 h, seven concentrations, MTT

>  <Compound>
O=C(OCc1cn(Cc2ccc(C(=O)c3ccccc3)cc2)nn1)c1cccc([N+](=O)[O-])c1 [SP18]

>  <Result Units>
µM

>  <IC50>
22.1

$$$$

====

- Measured Target: BAG3 full length (Homo sapiens, UniProt O95817)
- Sequence (O95817 whole entry): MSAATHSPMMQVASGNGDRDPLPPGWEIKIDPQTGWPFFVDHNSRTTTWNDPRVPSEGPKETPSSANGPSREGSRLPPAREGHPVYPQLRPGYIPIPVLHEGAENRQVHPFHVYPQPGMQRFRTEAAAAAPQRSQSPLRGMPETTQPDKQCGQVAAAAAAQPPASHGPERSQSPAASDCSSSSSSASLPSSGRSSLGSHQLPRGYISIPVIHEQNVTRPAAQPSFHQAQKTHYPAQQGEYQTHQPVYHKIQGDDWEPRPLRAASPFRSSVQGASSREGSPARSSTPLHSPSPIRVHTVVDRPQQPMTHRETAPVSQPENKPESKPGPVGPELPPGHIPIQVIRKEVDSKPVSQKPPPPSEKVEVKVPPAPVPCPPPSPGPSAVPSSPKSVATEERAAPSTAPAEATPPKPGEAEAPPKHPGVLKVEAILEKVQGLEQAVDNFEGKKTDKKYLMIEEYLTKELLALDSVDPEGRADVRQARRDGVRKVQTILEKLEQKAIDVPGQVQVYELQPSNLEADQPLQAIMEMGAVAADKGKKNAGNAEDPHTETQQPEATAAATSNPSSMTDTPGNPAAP
The molecules listed here are annotated with their Kd.

>  <Molecule>
O=C(OCc1cn(Cc2ccc3ccccc3n2)nn1)c1ccccc1I [Compound 8]

>  <Kd, µM>
12.6

$$$$
>  <Molecule>
O=C(OCc1cn(Cc2ccc3c(c2)C(=O)c2ccccc2C3=O)nn1)c1cccc([N+](=O)[O-])c1 [Compound 2]

>  <Kd, µM>
1.04

$$$$
>  <Molecule>
O=C(OCc1cn(Cc2ccc(C(=O)c3ccccc3)cc2)nn1)c1cccc([N+](=O)[O-])c1 [SP18]

>  <Kd, µM>
36

$$$$
>  <Molecule>
O=C(OCc1cn(Cc2ccc3ccccc3n2)nn1)c1cccc([N+](=O)[O-])c1 [Compound 5]

>  <Kd, µM>
12.5

$$$$

====

- Measured Target: BAG3-BD (Homo sapiens)
- Construct: the BAG3 domain (BAG3‐BD) was sourced from ARETA International S.r.l; (Gerenzano, Italy); purchased ARETA International S.r.l
- Assay Text: SPR binding on BAG3 BAG domain
- Conditions: Biacore T200, 25 °C, 1:1 model

>  <Compound>
O=C(OCc1cn(COCc2ccccc2)nn1)c1cccc([N+](=O)[O-])c1 [Compound 1]

>  <BAG3–BD KD ± SD>
low micromolar range

$$$$
>  <Compound>
Cc1cc(C)n(-c2cccc(Cn3cc(COC(=O)c4cccc([N+](=O)[O-])c4)nn3)c2)n1 [Compound 4]

>  <BAG3–BD KD ± SD>
not able to bind

$$$$
>  <Compound>
O=C(OCc1cn(Cc2cccc3ccccc23)nn1)c1cccc([N+](=O)[O-])c1 [Compound 3]

>  <BAG3–BD KD ± SD>
not able to bind

$$$$
>  <Compound>
O=C(OCc1cn(Cc2ccc3c(c2)C(=O)c2ccccc2C3=O)nn1)c1cccc([N+](=O)[O-])c1 [Compound 2]

>  <BAG3–BD KD ± SD>
low micromolar range

$$$$
